system: Nuclear receptor subfamily 1 group I member 2 (Homo sapiens) (UniProt O75469)
Sequence (O75469 whole entry, looked up): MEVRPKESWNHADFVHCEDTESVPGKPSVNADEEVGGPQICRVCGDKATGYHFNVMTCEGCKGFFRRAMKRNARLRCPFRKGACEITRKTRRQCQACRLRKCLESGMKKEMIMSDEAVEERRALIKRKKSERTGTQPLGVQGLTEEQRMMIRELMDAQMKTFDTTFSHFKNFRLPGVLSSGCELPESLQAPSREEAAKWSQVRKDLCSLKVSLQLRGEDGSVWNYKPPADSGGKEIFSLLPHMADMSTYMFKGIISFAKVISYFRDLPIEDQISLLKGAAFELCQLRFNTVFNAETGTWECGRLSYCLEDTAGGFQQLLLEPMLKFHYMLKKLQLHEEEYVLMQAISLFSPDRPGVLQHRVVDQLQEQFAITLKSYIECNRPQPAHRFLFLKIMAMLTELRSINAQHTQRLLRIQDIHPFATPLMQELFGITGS
assay-notes: NVS_NR_hPXR: NovaScreen (NVS) Nuclear Receptor Binding Assay for human Pregnane X Receptor (PXR) (AID 2283365);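 also: a drop in FRET signal versus DMSO baseline means the compound binds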
Records with an inconclusive call do not appear. Activity calls are given as the source filed them. The calls were made as follows: active = hit-call score of the fitted dose curve at least 0.9, where 1 is the maximum; inconclusive = response in the unintended direction; inactive = score below 0.9.
measured-property: AC50

Example compounds with recorded AC50:
>>> readout_value("O=C(CBr)c1ccc(O)cc1")
"inactive"
>>> readout_value("O=S1(=O)OC(c2cc(Br)c(O)c(Br)c2)(c2cc(Br)c(O)c(Br)c2)c2ccccc21")
"5.92 µM (active)"
>>> readout_value("O=C(CCl)Nc1ccccc1")
"inactive"
>>> readout_value("CCC[CH2][Sn]([Cl])([Cl])[CH2]CCC")
"5.56 µM (active)"

# return AC50 for each item in the list
1. CCOP(=S)(OCC)O/N=C(\C#N)c1ccccc1
2. O=C(NC(=O)c1c(F)cccc1F)Nc1cc(Cl)c(OC(F)(F)C(F)C(F)(F)F)cc1Cl (stereo unspecified)

1: inactive; 2: inactive

---

Read-out: Transforming Growth Factor (TGFB1), TGFB1 (gene 7040)
assay-notes: LTEA_HepaRG_TGFB1: Life Technologies and Expression Analysis (LTEA) Assay for Transforming Growth Factor (TGFB1) Transporter using HepaRG (AID 2283533)
setup-conditions: mRNA level, 48 h; actives raise or lower the signal
Active and inactive are the calls of the source. The calls were made as follows: active = hit-call score of the fitted dose curve at least 0.9, where 1 is the maximum; inactive = score below 0.9.
Allowed answers: active, inactive

Solved cases (6 shown):
>>> qualitative_label("Oc1cc(Cl)c(Cl)cc1Cl")
"inactive"
>>> qualitative_label("COc1ccccc1N")
"inactive"
>>> qualitative_label("Oc1c(Cl)cc(Cl)cc1Cl")
"inactive"
>>> qualitative_label("Cc1cc(C)cc(C)c1")
"inactive"
>>> qualitative_label("Clc1cccc(Cl)c1")
"inactive"
>>> qualitative_label("CC(C)(C)c1ccccc1O")
"inactive"

Next up:
What is the recorded call for this molecule in the test? `CCCCCCCCCCCCc1cccc(S(=O)(=O)O)c1`
active

---

assay-notes: ATG_PBREM_CIS: Attagene CIS-FACTORIAL HepG2 Assay for human Phenobarbital-responsive Enhancer Module (PBREM) (AID 2282955)
setup-conditions: HepG2 PBREM cis-reporter, Attagene multiplexed transcription; actives raise or lower the signal
The source made the active and inactive calls. Rule for the calls: active = hit-call score of the fitted dose curve at least 0.9, where 1 is the maximum; inactive = score below 0.9.
Allowed answers: label 1 (active), label 0 (inactive)

Solved cases (8 shown):
>>> qualitative_label("CC(C)(c1ccc(O)c(-c2ccccc2)c1)c1ccc(O)c(-c2ccccc2)c1")
"label 0"
>>> qualitative_label("CC(C)CP(=S)(S)CC(C)C")
"label 0"
>>> qualitative_label("OC(Cc1ccccc1Cl)(Cn1[nH]cnc1=S)C1(Cl)CC1 (centres undefined)")
"label 1"
>>> qualitative_label("CCC(C)(C#N)N=NC(C)(C#N)CC (centres undefined)")
"label 0"
>>> qualitative_label("C1CCC(C2CCCCC2)CC1")
"label 0"
>>> qualitative_label("Cc1ccc2nc3sc(=O)sc3nc2c1")
"label 0"
>>> qualitative_label("CCOc1ccc(N)cc1")
"label 0"
>>> qualitative_label("CC(C)(C)c1ccccc1O")
"label 0"

What is the recorded call for this compound in the test? CCOC(=O)C(SP(=S)(OC)OC)c1ccccc1 (centres undefined)
label 0

What is the recorded call for this compound in the test? `Cc1ccccc1OP(=O)(Oc1ccccc1C)Oc1ccccc1C`
label 0
